As shown below, each of these binders has a reported pSTAT3 (MFI) in monocytes at 1 µM value.
- study.target: T1, IL10Rα and IL2Rγ on human primary cells (CD8 T cells, CD4 T cells, monocytes) (human) (UniProt Q13651)
- T1 sequence (looked up) 1: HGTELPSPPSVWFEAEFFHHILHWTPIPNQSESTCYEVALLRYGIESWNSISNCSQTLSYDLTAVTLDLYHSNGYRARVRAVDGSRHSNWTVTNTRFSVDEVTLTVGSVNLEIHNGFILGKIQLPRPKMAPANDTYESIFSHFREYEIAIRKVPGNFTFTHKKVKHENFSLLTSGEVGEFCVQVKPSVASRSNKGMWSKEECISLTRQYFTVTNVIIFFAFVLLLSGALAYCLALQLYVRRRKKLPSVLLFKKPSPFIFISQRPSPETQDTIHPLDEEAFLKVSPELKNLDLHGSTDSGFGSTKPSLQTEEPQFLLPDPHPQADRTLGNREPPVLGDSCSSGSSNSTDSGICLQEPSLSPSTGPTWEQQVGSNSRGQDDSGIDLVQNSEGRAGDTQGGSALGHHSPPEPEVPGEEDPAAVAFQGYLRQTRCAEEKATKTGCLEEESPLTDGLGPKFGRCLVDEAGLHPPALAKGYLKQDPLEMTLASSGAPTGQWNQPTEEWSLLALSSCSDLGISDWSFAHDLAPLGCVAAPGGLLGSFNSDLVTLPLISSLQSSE
- T1 sequence (looked up) 2: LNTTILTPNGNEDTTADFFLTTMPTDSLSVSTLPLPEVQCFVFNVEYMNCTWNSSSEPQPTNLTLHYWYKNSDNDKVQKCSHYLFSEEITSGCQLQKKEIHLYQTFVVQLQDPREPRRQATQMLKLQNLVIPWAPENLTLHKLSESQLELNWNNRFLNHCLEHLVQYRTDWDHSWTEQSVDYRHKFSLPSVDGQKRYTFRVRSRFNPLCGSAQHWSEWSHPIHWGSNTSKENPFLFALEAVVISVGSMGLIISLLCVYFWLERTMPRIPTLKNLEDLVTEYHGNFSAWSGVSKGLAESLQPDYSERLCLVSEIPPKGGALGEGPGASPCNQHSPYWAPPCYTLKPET
- assay.procedure: cell-based or functional assay
Please state the figure in MFI; there is no need to write the unit.

binder: hIL10Ra_VHH14-hIL2Rg_VHH19, linker GS, tag his (bispecific antibody, not shown: small tags and cut ends) QVQLQESGGGSVQAGGSLRLSCGASGYTYSSYCMGWFRQVPGKEREGVAVIDSDGSTSYADSVKGRFTISKDNGKNTLYLQMNSLKPEDTAMYYCAADLGHYRPPCGVLYLGMDYWGKGTQVTVSSGSQVQLQESGGGSVQAGGSLRLSCTASGFTFDDREMNWYRQAPGNECELVSTISSDGSTYYADSVKGRFTISQDNAKNTVYLQMDSVKPEDTAVYYCAADFMIAIQAPGAGCWGQGTQVTVSS
unit.abbrev: MFI
pSTAT3 (MFI) in monocytes at 1 µM: 4790

binder: hIL10Ra_VHH14-hIL2Rg_VHH19, linker …, tag his (bispecific antibody, not shown: small tags and cut ends) QVQLQESGGGSVQAGGSLRLSCGASGYTYSSYCMGWFRQVPGKEREGVAVIDSDGSTSYADSVKGRFTISKDNGKNTLYLQMNSLKPEDTAMYYCAADLGHYRPPCGVLYLGMDYWGKGTQVTVSSGGSGGSGGSGQVQLQESGGGSVQAGGSLRLSCTASGFTFDDREMNWYRQAPGNECELVSTISSDGSTYYADSVKGRFTISQDNAKNTVYLQMDSVKPEDTAVYYCAADFMIAIQAPGAGCWGQGTQVTVSS
unit.abbrev: MFI
pSTAT3 (MFI) in monocytes at 1 µM: 4620

Moving on to the next binder.
In plain terms, hIL10Ra_VHH14-hIL2Rg_VHH19, no linker, tag his (bispecific antibody, not shown: small tags and cut ends) QVQLQESGGGSVQAGGSLRLSCGASGYTYSSYCMGWFRQVPGKEREGVAVIDSDGSTSYADSVKGRFTISKDNGKNTLYLQMNSLKPEDTAMYYCAADLGHYRPPCGVLYLGMDYWGKGTQVTVSSQVQLQESGGGSVQAGGSLRLSCTASGFTFDDREMNWYRQAPGNECELVSTISSDGSTYYADSVKGRFTISQDNAKNTVYLQMDSVKPEDTAVYYCAADFMIAIQAPGAGCWGQGTQVTVSS has a documented pSTAT3 (MFI) in monocytes at 1 µM of 4480

# credit: patent US20250163162A1
